Target: UniProtKB Q9N6S8
Sequence (Q9N6S8 whole entry): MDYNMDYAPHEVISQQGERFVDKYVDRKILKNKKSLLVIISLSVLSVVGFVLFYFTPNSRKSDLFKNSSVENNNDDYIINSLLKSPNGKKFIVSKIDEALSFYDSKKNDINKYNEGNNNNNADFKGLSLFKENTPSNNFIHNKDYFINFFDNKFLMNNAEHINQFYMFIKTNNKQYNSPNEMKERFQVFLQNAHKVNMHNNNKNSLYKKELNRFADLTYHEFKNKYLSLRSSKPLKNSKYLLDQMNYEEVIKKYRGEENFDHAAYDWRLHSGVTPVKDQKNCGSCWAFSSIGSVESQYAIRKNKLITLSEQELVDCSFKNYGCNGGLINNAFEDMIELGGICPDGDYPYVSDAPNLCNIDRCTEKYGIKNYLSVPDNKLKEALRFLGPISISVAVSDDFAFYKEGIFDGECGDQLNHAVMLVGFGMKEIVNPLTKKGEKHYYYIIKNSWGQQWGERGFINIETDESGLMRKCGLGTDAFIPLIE
Test: Inhibition of Plasmodium falciparum recombinant falcipain-2
Would you kindly list IC50 for each of these compounds?
Answers are plain numbers, in µM.

O=C(NCCNc1ccnc2cc(Cl)ccc12)N/N=C/c1ccc(O)c(CN2CCCC2)c1O ... 0.72
CN1CCN(Cc2c(O)ccc(/C=N/NC(N)=S)c2O)CC1 ... 18.2
O=C(NCCNc1ccnc2cc(Cl)ccc12)N/N=C/c1ccc(O)c(CN2CCCCC2)c1O ... 0.63
NC(=S)N/N=C/c1ccc(O)c(CN2CCN(c3ccnc4cc(Cl)ccc34)CC2)c1O ... 2.25
NC(=S)N/N=C/c1ccc(O)c(CN2CCCC2)c1O ... 5.85

Now look at this entry.
input: State its IC50 for this compound: O=C(NCCNc1ccnc2cc(Cl)ccc12)N/N=C/c1ccc(O)c(CN2CCN(c3ccnc4cc(Cl)ccc34)CC2)c1O
output: 3.16

###

Give measured pIC50 for each item. Keep answers brief.
Molecular target: Falcipain 2 (Plasmodium falciparum, UniProt Q9N6S8)
Experiment: Inhibition of Plasmodium falciparum recombinant falcipain-2
pIC50: −log10 of the molar value.

For each of the compounds below, note its pIC50.
1. CCN(CC)Cc1c(O)ccc(/C=N/NC(=O)NCCNc2ccnc3cc(Cl)ccc23)c1O
2. NC(=S)N/N=C/c1ccc(O)c(CN2CCCCC2)c1O
3. O=Cc1ccc(O)c(CN2CCCCC2)c1O

output:
1: 5.59; 2: 5.42; 3: < 4.70

###

System: Plasmodium falciparum
Assay: Antiparasitic activity against Plasmodium falciparum W2
Type: functional, organism-based
For each record, write down the corresponding IC50.
Numbers only, in µM.

Previously resolved entries follow.
O=C(NCCNc1ccnc2cc(Cl)ccc12)N/N=C/c1ccc(O)c(CN2CCN(c3ccnc4cc(Cl)ccc34)CC2)c1O ... 0.077
O=Cc1ccc(O)c(CN2CCN(c3ccnc4cc(Cl)ccc34)CC2)c1O ... 1.07
CCN(CC)Cc1c(O)ccc(/C=N/NC(=O)NCCNc2ccnc3cc(Cl)ccc23)c1O ... 0.44
NC(=S)N/N=C/c1ccc(O)c(CN2CCN(c3ccnc4cc(Cl)ccc34)CC2)c1O ... 3.75
O=C(NCCNc1ccnc2cc(Cl)ccc12)N/N=C/c1ccc(O)c(CN2CCCC2)c1O ... 1.07
O=C(NCCNc1ccnc2cc(Cl)ccc12)N/N=C/c1ccc(O)c(CN2CCOCC2)c1O ... 0.11
NC(=O)N/N=C/c1ccc(O)c(CN2CCN(c3ccnc4cc(Cl)ccc34)CC2)c1O ... 0.25
CN1CCN(Cc2c(O)ccc(/C=N/NC(=O)NCCNc3ccnc4cc(Cl)ccc34)c2O)CC1 ... 0.38

input: Tell me its IC50 given O=C(NCCNc1ccnc2cc(Cl)ccc12)N/N=C/c1ccc(O)c(CN2CCCCC2)c1O as the entry.
output: 0.27
